Target: T1, endogenous human APOL1 (wild-type immortalized podocytes; also JHH-1 cells, kidney and liver tissue) (human, UniProt O14791 28-398)
T1 construct: whole, on cells; Cell or tissue and permeabilization are told under assay; also called podocyte APOL1; endogenous APOL1
T1 sequence (looked up): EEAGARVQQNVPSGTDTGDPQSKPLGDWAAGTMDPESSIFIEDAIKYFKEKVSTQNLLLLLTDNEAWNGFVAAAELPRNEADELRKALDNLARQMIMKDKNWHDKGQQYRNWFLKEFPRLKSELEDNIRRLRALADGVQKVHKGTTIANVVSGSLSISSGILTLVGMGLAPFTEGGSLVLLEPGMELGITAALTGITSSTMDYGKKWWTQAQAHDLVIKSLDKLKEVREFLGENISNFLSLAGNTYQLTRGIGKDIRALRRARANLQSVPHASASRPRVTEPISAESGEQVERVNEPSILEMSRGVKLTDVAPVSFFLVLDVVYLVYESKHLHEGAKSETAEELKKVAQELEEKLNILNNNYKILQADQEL
Test: summary of the Examples: podocyte flow cytometry
Test readout: binding result

rabbit monoclonal antibody 5.17D12 (antibody, V domains shown, Rabbit mAb (Method #5), recombinant; also called rabmab 5.17D12) VH: QSLEESGGDLVKPGASLTLTCTASGFSFSSNYYMCWVRQAPGKGLEWIACVYVGSGGSTYYASWAKGRFTFSKTSSTTWTLQMTSLTAADTATYFCARDLSYAGDLWGPGTLVTVSS VL: DPVMTQTPASVSEPVGGTVTINCQASESISSYLAWYQQKPGQPPKLLIYGASNLASGVPSRFKGSGSGTEYTLTISDLECDDAATYYCQSAYYSNSGGHAFGGGTEVVVKG = binds
antibody 3.4G10 (antibody, V domains shown, Mouse mAb, cloned as murine IgG2a LALAPG) VH: DVQLQESGPDLVKPSQSLSLTCTVTGYSITSGESWHWIRHFPGNELEWMGFIHYSGSANYNPSLKSRISITRDTSKNQFFLQLLSVTTDDTATYYCARSVYNYDGAWFPYWGQGTLVTVSA VL: QIVLTQSPVIMSASPGERVTLTCSASSSVSSSYLNWYQLKPGSSPKVWIYRTSNLASGVPARFSGSGSGTSYSLTISSMEAEDAASYFCHQWSAYPPTFGGGTKLEIKR = binds
antibody 3.1C1 (antibody, V domains shown, Mouse mAb, cloned as murine IgG2a LALAPG; not written separately; also called SRA-ID mAb 3.1C1) VH: QVQLQQSGPELVKPGASVRISCKASGYTFTNYFIHWVKQRPGQGLEWIGWINPGNLNTKYTEEFKGKATLTADKSSSTAYIQLNSLTSEDSAVYFCVNGNPFVYWGQGTLVTVSA VL: DIVMTQSPSSLTVIAGEKVTLNCKSSQSLLNSGNQKKYLTWLQQKPGQPPKLLIYWTSTRDSGVPDRFTGSGSGTDFTLTISSVQAEDLAVYYCQNDYSYPLTFGAGTKLEIKR = binds
